meta.source: patent US20250027068

Entries annotated with measured Enzyme Activity Endpoint Assay: IgG
# ASSAYED_SYSTEM: pooled human IgG
# output: numeric value plus its unit

// below: answered proteins
PROTEIN	REPORTED_VALUE
PRT-54 (protein) MANQEIRYSEVTPYHVTSVWTKGVTPPANFTQGEDVFHAPYVANQGWYDITKTFNGKDDLLCGAATAGNMLHWWFDQNKDQIDRYLEEHPEKQKINFNGEQMFDVKEAIDTKNHQLDSKLFEYFKEKAFPYLSTKHLGVFPDLVIDMFINGYRLSLTNHGPTPVKEGSKDPRGGFFDAVFTRGDQSKLLTSRHDFKEKNLKEISDLIKKELTEGKALGLSHTYANVRINHVINLWGADFDSNGNLKAIYVTDSDSNASIGMKKYFVGVNSAGKVAISAKEIKEDNIGAQVLGLFTLSTGQDSWNQTN	110 ng/µL
PRT-4 (protein) MANQEIRYSEVTPYHVTSVWTKGVTPPANFTQGEDVFHAPYVANQGWYDITKTFNGKDDLLCGAATAGNMLHWWFDQNKEQIERYLKEHPEKQKINFNGEQMFDVKEAIDTKDSQLDSKLFEYFKEKAFPYLSTKHLGVFPDHVIDMFINGYRLSLTNHGPTPVKEGSKDPRGGIFDAVFTRGDQSKLLTSRHDFKEKNLKEISDLIKKELTEGKALALSHTYANVRINHVINLWGADFDSNGNLKAIYVTDSDSNASIGMKKYFVGVNSAGKVAISAKEIKEDNIGAQVLGLFTLSTGQDIWNQTN	23 ng/µL
PRT-278 (protein) MVTSVWTKGVTPPTDFIYGEDVLHAPYKAGQGWYDITKLFNGKDNLLCGAATAGNMLHWWFDQNKEQIENYLKKHPEKQKIIFNNQELFDLKAAIDTKDSQLDSKLFDYFKEKAFPYLSTKHLGVFPDHVIDMFINGYRLSLTNHGPTPVKRGSKDKRGGIFDAVFTRGVQSKLLTNRHDLKNKTLKEISDLIKQELTEGKALGISHTYANVRINHVINLWGADFDAEGNLEAIYVTDSDTNPSIGMKKYFVGVNSSGKVAISAKEIEEDNIGAQVLGLFTLSTGQDIWNQTN	0 ng/µL

# evaluate next
Value of Enzyme Activity Endpoint Assay: IgG reported for the protein PRT-13 (protein) MANQEIRYSEETPYHVTSVWTKGVTPPANFTQGEDVFHAPYKANQGWYDITKTFNGKDDLLCGAATAGNMLHWWFDQNKDQIEAYLKEHPEKQKINFNGEQMFDVKEAIDTKDDQTNSKLFEYFKEKAFPYLSTKHLGVFPDHVLDMFINGYRLSLTNHGPTPVKEGSKDPRGGIFDAVFTRGDQSKLLTSRHDFKEKTLKEISDLIKQELTEGKALALSHTYANVRINHVINLWGADFDSNGNLEAIYVTDSDSNASIGMKKYFVGVNSAGKVAISAKEIEDDNIGAQVLGLFTLSTGQDIWNQTN is 12 ng/µL
